Test system: A498
protocol_details: NCI tumour cell line growth inhibition, 48 h
The source made the active and inactive calls. Rule as the data show it: active = GI50 up to about 1.1 µM and inactive = higher.
Labels: active, inactive

| molecule | experimental_target | category |
| --- | --- | --- |
| COc1cc(C)cc(C(=O)/C=C/c2ccccc2)c1O | A498 | inactive |
| COC(=O)C1(C(=O)OC)N=C(C)OC1c1ccccc1O (stereo not drawn) | A498 | inactive |
| CC1OC(OCC2OC(Oc3c(-c4ccc(O)cc4)oc4cc(O)cc(O)c4c3=O)C(OC3OCC(O)(CO)C3O)C(O)C2O)C(O)C(O)C1O (stereo not drawn) | A498 | inactive |
| CCOC(=O)C(NC(=O)c1ccccc1)(Nc1ccc(Cl)cc1C(F)(F)F)C(F)(F)F (stereo not drawn) | A498 | inactive |
| COc1ccc(C(=O)/C=C/c2cccnc2)cc1OC | A498 | inactive |
| C[C@]12CC/C(=N\O)C=C1CC[C@@H]1[C@@H]2CC[C@]2(C)C(=N/O)/C(=C/c3ccc([N+](=O)[O-])cc3)C[C@@H]12 | A498 | inactive |
| Cc1c(C(=O)/C=C/c2cccc3ccccc23)[n+]([O-])c2ccccc2[n+]1[O-] | A498 | inactive |
| COc1ccc(/N=C\c2cc(OC)c(OC)c(OC)c2)cc1 | A498 | inactive |
| O=C1Cc2ccccc2N1/N=C\c1ccc(O)cc1 | A498 | inactive |
| C#CCN(Cc1ccc2nc(-c3ccccc3)c(Cl)nc2c1)c1cc(OC)c(OC)c(OC)c1 | A498 | inactive |
| CC(C)=CCN1c2ccc(Cl)cc2NC(=O)CC1C (stereo not drawn) | A498 | inactive |
| Cc1ccc(/C=C2\NC(=S)N(CN3CCOCC3)C2=O)cc1 | A498 | inactive |
| Cc1ccc(NC(=O)/C(=N\NC(N)=O)c2c(O)c3ccccc3[nH]c2=O)cc1 | A498 | inactive |
| CC[C@]12C=CCN3CCC4(c5cc([C@@]6(C(=O)OC)CC7CN(CCc8c6[nH]c6ccccc86)CC6CCCCC67)c(OC)cc5N(C)C4[C@](O)(C(=O)OC)C1OC(C)=O)[C@@H]32 (stereo partly drawn) | A498 | active |
| C=C1COC(/C=C(\C)CC/C=C(\C)CCl)C1 (stereo not drawn) | A498 | inactive |
| C/C=C/C1=C(Cl)C(=O)[C@@H](Cl)[C@@]1(O)C(=O)OC [(+)-CRYPTOSPORIPSIN] | A498 | inactive |
| CCOC(=O)C(NC(=O)N(C1=NCC(C)S1)C1CCCCC1)(OC)C(F)(F)F (stereo not drawn) | A498 | inactive |
| Nc1ncc(/C=N/O)c(NCC2(CO)CC(CCc3ccccc3)C2)n1 (stereo not drawn) | A498 | inactive |
| O=C1NC2OCC(O)C(O1)C2O (stereo not drawn) | A498 | inactive |
| C=C(C)C(=O)OC1C[C@H](COC(C)=O)C2CC=C(CO)C2C2OC(=O)C(=C)[C@H]12 (stereo partly drawn) | A498 | inactive |
| CC1=NC(=O)C(C)(c2ccccc2)N1CCc1ccccc1 (stereo not drawn) | A498 | inactive |
| COc1ccc(-c2csc3c2[N+]2(C)C=CC=C2C3N2CCCC2)cc1 (stereo not drawn) | A498 | inactive |
| CCCCCCCCCCCC[C@@H](O)[C@H]1CC[C@H]([C@H](O)CC[C@H](O)[C@@H]2CC[C@@H](CCCCCCCC3=C[C@H](C)OC3=O)O2)O1 | A498 | inactive |
